Entries and their pKd values follow.
Biological target: T1, vaspin WT (Homo sapiens, UniProt Q8IW75 21-414)
T1 sequence: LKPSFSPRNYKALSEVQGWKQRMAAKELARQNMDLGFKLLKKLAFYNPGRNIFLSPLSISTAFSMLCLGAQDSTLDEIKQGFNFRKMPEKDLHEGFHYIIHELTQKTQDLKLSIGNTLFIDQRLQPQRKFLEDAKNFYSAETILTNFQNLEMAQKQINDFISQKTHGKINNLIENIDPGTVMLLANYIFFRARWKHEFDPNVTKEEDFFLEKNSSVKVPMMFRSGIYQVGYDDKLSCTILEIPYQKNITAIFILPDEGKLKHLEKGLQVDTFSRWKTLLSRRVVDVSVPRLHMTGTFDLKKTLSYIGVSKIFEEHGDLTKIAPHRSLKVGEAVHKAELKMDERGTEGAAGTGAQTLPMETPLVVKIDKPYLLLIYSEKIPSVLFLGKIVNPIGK
Test: DRaCALA; Buffer 2; DRaCALA: Buffer 2, 20 mM Tris/HCl pH 7.8, 15 mM NaCl, 50 nM labeled ssDNA, 10 min at 20 C; screening also in Buffer 1 (20 mM Tris/HCl pH 7.8, 150 mM NaCl) and Buffer 3 (20 mM Tris/HCl pH 7.8, 15 mM KCl)
Conditions: protein: recombinant; label: 5'-32P
Worth noting: pKd values are minus log10 of concentrations stated in mol/L.

Completed entries (count: 2):
INSERT INTO measurements (binder, experimental_value) VALUES
  ('GACGGATCGGGAGATCTCCC (ssDNA) [20 base ssDNA]', 7.23),
  ('120 base ssDNA (ssDNA) DNA: GACGGATCGGGAGATCTCCCGATCCCCTATGGTGCACTCTCAGTACAATCTGCTCTGATGCCGCATAGTTAAGCCAGTATCTGCTCCCTGCTTGTGTGTTGGAGGTCGCTGAGTAGTGCG', 6.89);

Input: Consider the binder shown here: 60 base ssDNA (ssDNA) DNA: GACGGATCGGGAGATCTCCCGATCCCCTATGGTGCACTCTCAGTACAATCTGCTCTGATG What is its recorded pKd?
Output: 6.93
